# TEST_METHOD_NOTES: physchem
# ASSAY_CONDITIONS: buffer
QUANTITY_KIND: solubility thermodynamic at 24 h

Qu. For Cc1cnc(NC(=O)C2=C(O)c3ccccc3S(=O)(=O)N2C)s1 [MELOXICAM] , write its solubility thermodynamic at 24 h.
Ans. 11 µM

---

# TEST_METHOD_NOTES: physchem
# ASSAY_CONDITIONS: PBS, pH 7.4
Decision: solubility thermodynamic at 24 h >= 0.4 µM yields 1, all other cases yield 0.

// below: answered compounds
CCC(=O)O[C@]1(C(=O)SCF)[C@H](C)C[C@H]2[C@@H]3C[C@H](F)C4=CC(=O)C=C[C@]4(C)[C@@]3(F)[C@@H](O)C[C@@]21C [FLUTICASONE PROPIONATE] = 0
COc1c2occc2c(OC)c2c(=O)cc(C)oc12 [KHELLIN] = 1
CC(C)(C#N)c1cc(Cn2cncn2)cc(C(C)(C)C#N)c1 [ANASTROZOLE] = 0
CCCSc1ccc2nc(NC(=O)OC)[nH]c2c1 [ALBENDAZOLE] = 1
CN(C/C=C/C#CC(C)(C)C)Cc1cccc2ccccc12.Cl [TERBINAFINE HYDROCHLORIDE] = 1
CCCc1nc2c(C)cc(-c3nc4ccccc4n3C)cc2n1Cc1ccc(-c2ccccc2C(=O)O)cc1 = 1
C[C@@H]1[C@H](O)[C@@H](C)/C=C/C=C/C=C/C=C/C=C/C=C/C=C/[C@H](O[C@@H]2O[C@H](C)[C@@H](O)[C@H](N)[C@@H]2O)C[C@@H]2O[C@](O)(C[C@@H](O)C[C@@H](O)[C@H](O)CC[C@@H](O)C[C@@H](O)CC(=O)O[C@H]1C)C[C@H](O)[C@H]2C(=O)O [AMPHOTERICIN B] = 1

Proceed to the following item.
Qu. Identify whether the reported solubility thermodynamic at 24 h of the following compound is 0.4 µM or greater: OC(Cn1cncn1)(Cn1cncn1)c1ccc(F)cc1F [FLUCONAZOLE]
Ans. 1

---

# TEST_METHOD_NOTES: physchem
# ASSAY_CONDITIONS: water
Would you mind labelling by solubility thermodynamic at 4 h? At or over 10 µM is T, under is F.

COCCOC(=O)C1=C(C)NC(C)=C(C(=O)OC(C)C)C1c1cccc([N+](=O)[O-])c1 (centres undefined) [NIMODIPINE] = F
NC(=O)c1cnccn1 [PYRAZINAMIDE] = T

Qu. Please indicate if the recorded solubility thermodynamic at 4 h for O=c1c2cc(O)c(O)cc2oc2cc(O)c([C@@H]3O[C@H](CO)[C@@H](O)[C@H](O)[C@H]3O)c(O)c12 [MANGIFERIN] meets or exceeds 10 µM.
Ans. T

Qu. Does the reported solubility thermodynamic at 4 h for [H]/N=C(/N)N[C@H]1[C@H](O)[C@@H](O)[C@H](O[C@@H]2O[C@@H](C)[C@](O)(C=O)[C@H]2O[C@@H]2O[C@@H](CO)[C@H](O)[C@@H](O)[C@@H]2NC)[C@@H](N/C(N)=N\[H])[C@@H]1O [STREPTOMYCIN] fall at or above the 10 µM mark?
Ans. F

Qu. Does the molecule CC[C@H]1OC(=O)[C@H](C)[C@@H](O[C@H]2C[C@@](C)(OC)[C@@H](O)[C@H](C)O2)[C@H](C)[C@@H](O[C@@H]2O[C@H](C)C[C@H](N(C)C)[C@H]2O)[C@](C)(O)C[C@@H](C)/C(=N\OCOCCOC)[C@H](C)[C@@H](O)[C@]1(C)O [ROXITHROMYCIN] have recorded solubility thermodynamic at 4 h that is 10 µM or more?
Ans. F

Qu. Assess whether reported solubility thermodynamic at 4 h for C=C(C)[C@@H](CC=C(C)C)C[C@@]12C[C@@H](CC=C(C)C)C(C)(C)[C@@](CC=C(C)C)(C(=O)C(C(=O)c3ccc(O)c(O)c3)=C1O)C2=O [GARCINOL] sits at 10 µM or higher.
Ans. F

Qu. Please tell me: is the molecule CCCc1nc2c(C)cc(-c3nc4ccccc4n3C)cc2n1Cc1ccc(-c2ccccc2C(=O)O)cc1 at or over 10 µM in terms of solubility thermodynamic at 4 h?
Ans. F

Qu. Decide: is the reported value of solubility thermodynamic at 4 h for COc1c2occc2c(OC)c2c(=O)cc(C)oc12 [KHELLIN] equal to or greater than 10 µM?
Ans. T

---

# TEST_METHOD_NOTES: physchem
# ASSAY_CONDITIONS: simulated intestinal fluid, pH 6.8
Recorded log10 solubility thermodynamic at 4 h values for a group of compounds are listed next.
Values below are the log10 of the recorded solubility thermodynamic at 4 h, with µM as the unit.

Here is how some compounds turned out for log10 solubility thermodynamic at 4 h.
CCCSc1ccc2nc(NC(=O)OC)[nH]c2c1 = 0.28
COc1c2occc2c(OC)c2c(=O)cc(C)oc12 = 1.49
CN1C(=N)N(C)/C(=C/c2c[nH]c3ccccc23)C1=O = -0.41
CC(=O)O[C@@]12CO[C@@H]1C[C@H](O)[C@@]1(C)C(=O)[C@H](O)C3=C(C)[C@@H](OC(=O)[C@H](O)[C@@H](NC(=O)OC(C)(C)C)c4ccccc4)C[C@@](O)([C@@H](OC(=O)c4ccccc4)[C@H]21)C3(C)C.O.O.O = 0.09

Qu. Assign log10 solubility thermodynamic at 4 h to the following record: COc1ccc2[nH]c([S+]([O-])Cc3ncc(C)c(OC)c3C)nc2c1 (configuration not stated)
Ans. 1.76

Qu. Identify measured log10 solubility thermodynamic at 4 h associated with CCC(=O)O[C@]1(C(=O)SCF)[C@H](C)C[C@H]2[C@@H]3C[C@H](F)C4=CC(=O)C=C[C@]4(C)[C@@]3(F)[C@@H](O)C[C@@]21C [FLUTICASONE PROPIONATE]
Ans. 0.00

Qu. Quickly give me recorded log10 solubility thermodynamic at 4 h for CC(=O)N[C@@H](CS)C(=O)O
Ans. 0.79

---

# TEST_METHOD_NOTES: physchem
# ASSAY_CONDITIONS: simulated gi fluid, pH 6.8
QUANTITY_KIND: solubility thermodynamic at 24 h

Cc1cnc(NC(=O)C2=C(O)c3ccccc3S(=O)(=O)N2C)s1 = 28.8 µM

Proceed to the following item.
Qu. Hello, please tell me recorded solubility thermodynamic at 24 h for this one: CC(=O)Oc1ccccc1C(=O)O
Ans. 3.72 µM

---

# TEST_METHOD_NOTES: physchem
// solubility thermodynamic lookup, one value per entry
Field format: number, assumed µM, no unit text.

# annotated cases, reported solubility thermodynamic shown
COc1c2occc2c(OC)c2c(=O)cc(C)oc12 [KHELLIN] = 97.7
CC(=O)O[C@@]12CO[C@@H]1C[C@H](O)[C@@]1(C)C(=O)[C@H](O)C3=C(C)[C@@H](OC(=O)[C@H](O)[C@@H](NC(=O)OC(C)(C)C)c4ccccc4)C[C@@](O)([C@@H](OC(=O)c4ccccc4)[C@H]21)C3(C)C.O.O.O [DOCETAXEL] = 0.871
OC(Cn1cncn1)(Cn1cncn1)c1ccc(F)cc1F [FLUCONAZOLE] = 0.331
COc1ccc2cc3[n+](cc2c1OC)CCc1cc2c(cc1-3)OCO2.[Cl-] [BERBERINE CHLORIDE] = 537
CCCCCCCCCCCC1=C(O)C(=O)C=C(O)C1=O [EMBELIN] = 1.02

Okay, next one:
Qu. State, in one line, measured solubility thermodynamic of CC[C@H]1OC(=O)[C@H](C)[C@@H](O[C@H]2C[C@@](C)(OC)[C@@H](O)[C@H](C)O2)[C@H](C)[C@@H](O[C@@H]2O[C@H](C)C[C@H](N(C)C)[C@H]2O)[C@](C)(OC)C[C@@H](C)C(=O)[C@H](C)[C@@H](O)[C@]1(C)O [CLARITHROMYCIN]
Ans. 0.0447

---

# TEST_METHOD_NOTES: physchem
# ASSAY_CONDITIONS: PBS, pH 7.4
The reader will find reported solubility thermodynamic at 4 h values listed item by item below.
Your answer should be a plain number; it is taken to be in µM.

Qu. Item CC(/C=C/C=C(\C)C(=O)O[C@@H]1O[C@H](CO[C@@H]2O[C@H](CO)[C@@H](O)[C@H](O)[C@H]2O)[C@@H](O)[C@H](O)[C@H]1O)=C\C=C\C=C(C)\C=C\C=C(/C)C(=O)O[C@@H]1O[C@H](CO[C@@H]2O[C@H](CO)[C@@H](O)[C@H](O)[C@H]2O)[C@@H](O)[C@H](O)[C@H]1O : provide solubility thermodynamic at 4 h
Ans. 155

Qu. Give the reported solubility thermodynamic at 4 h for this molecule. CCC(=O)O[C@]1(C(=O)SCF)[C@H](C)C[C@H]2[C@@H]3C[C@H](F)C4=CC(=O)C=C[C@]4(C)[C@@]3(F)[C@@H](O)C[C@@]21C [FLUTICASONE PROPIONATE]
Ans. 0.2

Qu. For COc1ccc2cc3[n+](cc2c1OC)CCc1cc2c(cc1-3)OCO2.[Cl-] [BERBERINE CHLORIDE] , write its solubility thermodynamic at 4 h.
Ans. 21.4

Qu. Give the measured solubility thermodynamic at 4 h for [H]/N=C(/N)N[C@H]1[C@H](O)[C@@H](O)[C@H](O[C@@H]2O[C@@H](C)[C@](O)(C=O)[C@H]2O[C@@H]2O[C@@H](CO)[C@H](O)[C@@H](O)[C@@H]2NC)[C@@H](N/C(N)=N\[H])[C@@H]1O
Ans. 0.851

Qu. Assign solubility thermodynamic at 4 h to the following record: CC(=O)N[C@@H](CS)C(=O)O
Ans. 12.3

Qu. Complete the entry with solubility thermodynamic at 4 h for CCCCCCCCCCCC1=C(O)C(=O)C=C(O)C1=O
Ans. 1.7

Qu. Note solubility thermodynamic at 4 h for the molecule shown: O=c1c2cc(O)c(O)cc2oc2cc(O)c([C@@H]3O[C@H](CO)[C@@H](O)[C@H](O)[C@H]3O)c(O)c12
Ans. 47.9

Qu. Note solubility thermodynamic at 4 h for the molecule shown: OC(Cn1cncn1)(Cn1cncn1)c1ccc(F)cc1F
Ans. 0.324

Qu. # return recorded solubility thermodynamic at 4 h for entry CC(C)(C#N)c1cc(Cn2cncn2)cc(C(C)(C)C#N)c1
Ans. 0.339

Qu. Specify solubility thermodynamic at 4 h for CCCc1nc2c(C)cc(-c3nc4ccccc4n3C)cc2n1Cc1ccc(-c2ccccc2C(=O)O)cc1 and stop.
Ans. 7.76
